EXPERIMENTAL PROTOCOL: Ratio of drug uptake in C57BL/6 mouse brain to plasma at 1 to 16 umol/kg, sc measured after 60 mins by protein precipitation based LC-ESI-MS analysis
Assay type: ADME, organism-based
MEASUREMENT NAME: Kp at 1 h
Give bare numbers.

Sure, the documented Kp at 1 h for `Cc1c(C(=O)c2cccc3ccccc23)c2cccc3c2n1C[C@H](CN1CCOCC1)O3` is 4.2

* * *

EXPERIMENTAL PROTOCOL: Ratio of drug uptake in Sprague-Dawley rat brain to plasma at 1 to 8 umol/kg, sc measured after 60 mins by protein precipitation based LC-ESI-MS analysis
Format: ADME, organism-based
MEASUREMENT NAME: Kp at 1 h
Give bare numbers.

Sure, the documented Kp at 1 h for `Cc1c(C(=O)c2cccc3ccccc23)c2cccc3c2n1C[C@H](CN1CCOCC1)O3` is 2.2

* * *

STUDY SYSTEM: Cannabinoid receptor 1 (Homo sapiens, UniProt P21554)
Sequence (P21554 whole entry): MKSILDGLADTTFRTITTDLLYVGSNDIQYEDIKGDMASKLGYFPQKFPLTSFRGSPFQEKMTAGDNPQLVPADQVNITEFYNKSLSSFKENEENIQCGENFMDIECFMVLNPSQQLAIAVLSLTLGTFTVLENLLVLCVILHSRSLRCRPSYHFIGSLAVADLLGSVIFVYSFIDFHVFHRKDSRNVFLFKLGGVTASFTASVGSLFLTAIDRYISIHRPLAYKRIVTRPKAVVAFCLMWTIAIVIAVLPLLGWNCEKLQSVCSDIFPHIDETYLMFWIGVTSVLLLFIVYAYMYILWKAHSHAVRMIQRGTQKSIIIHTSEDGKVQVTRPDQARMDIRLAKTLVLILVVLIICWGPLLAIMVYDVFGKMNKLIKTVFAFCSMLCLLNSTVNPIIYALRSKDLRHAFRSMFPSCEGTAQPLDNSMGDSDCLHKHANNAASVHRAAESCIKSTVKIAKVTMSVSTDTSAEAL
MEASUREMENT NAME: pKi
Numbers only, as −log10 of the molar value.

Sure, the documented pKi for `CC(C)(C)c1nc2cc(NS(C)(=O)=O)ccc2n1CC1CCC(F)(F)CC1` is 7.93

* * *

STUDY SYSTEM: Cannabinoid receptor 1 (Homo sapiens)
EXPERIMENTAL PROTOCOL: Agonist activity at human CB1 receptor expressed in HEK293 cell membranes after 1 hr by scintillation counting method
MEASUREMENT NAME: EC50 (µM)
Answers are plain numbers, in µM.

Sure, the documented EC50 for `CCOc1ccc(Cc2nc3cc(N(C)S(=O)(=O)c4cccs4)ccc3n2CC2CCCCC2)nc1` is 0.01

* * *

EXPERIMENTAL PROTOCOL: Brain to plasma permeability coefficient, Kp of compound in rat
Assay type: ADME
MEASUREMENT NAME: Kp
Numbers only.

Sure, the documented Kp for `CC(C)(C)c1nc2cc(NS(C)(=O)=O)ccc2n1CC1CCC(F)(F)CC1` is 0.04

* * *

STUDY SYSTEM: Cannabinoid receptor 2 (Homo sapiens, UniProt P34972)
Sequence (P34972 whole entry): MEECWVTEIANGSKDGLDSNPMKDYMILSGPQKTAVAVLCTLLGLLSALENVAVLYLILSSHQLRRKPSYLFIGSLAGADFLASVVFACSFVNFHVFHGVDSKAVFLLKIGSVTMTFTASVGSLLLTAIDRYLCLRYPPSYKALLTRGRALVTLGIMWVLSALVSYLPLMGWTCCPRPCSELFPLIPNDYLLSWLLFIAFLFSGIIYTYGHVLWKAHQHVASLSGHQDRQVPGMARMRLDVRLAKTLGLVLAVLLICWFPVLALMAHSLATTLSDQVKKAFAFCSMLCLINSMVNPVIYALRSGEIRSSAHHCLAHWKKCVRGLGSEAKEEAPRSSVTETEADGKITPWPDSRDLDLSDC
MEASUREMENT NAME: pIC50
Numbers only, as −log10 of the molar value.

Sure, the documented pIC50 for `CCOc1ccc(Cc2nc3cc(N(C)S(=O)(=O)c4cccs4)ccc3n2CC2CCCCC2)nc1` is 9.00
